Each record here notes measured glycan array binding signal (z-score).
# system-under-test: Gal(b1-3)GlcNAc(b1-2)Man
# test-protocol: glycan array binding signal (z-score within array); higher = stronger binding
# experimental-parameters: glycan notation: IUPAC condensed, linker removed
The sample as a whole holds a higher share of the strongest signals than the screen did.
// print number alone

{"binder": "CrataBL (Crataeva tapia), C0HJA4 (protein) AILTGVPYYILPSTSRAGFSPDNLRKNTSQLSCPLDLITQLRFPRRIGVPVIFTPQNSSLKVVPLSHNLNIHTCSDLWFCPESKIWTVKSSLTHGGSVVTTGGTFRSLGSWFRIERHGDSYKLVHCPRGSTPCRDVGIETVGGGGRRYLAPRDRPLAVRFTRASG", "glycan array binding signal (z-score)": -0.207}

(Q) Indicate the recorded glycan array binding signal (z-score) value for this binder: PhypaEULS3 (Physcomitrella patens) (protein) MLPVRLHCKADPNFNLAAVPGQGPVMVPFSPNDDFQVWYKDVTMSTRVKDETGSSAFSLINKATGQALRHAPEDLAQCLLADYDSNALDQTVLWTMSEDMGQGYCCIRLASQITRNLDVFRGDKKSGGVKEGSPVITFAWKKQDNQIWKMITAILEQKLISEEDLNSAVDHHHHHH
(A) 0.702
